pKi: −log10 of the molar value.
Collected literature values of pKi measured for Rho-associated protein kinase 1 (Homo sapiens).

Below: 8 compounds and their reported pKi.
| Compound | pKi |
| --- | --- |
| N[C@@H](Cc1ccc(Oc2ncnc3[nH]ccc23)cc1)C(=O)N1CCN(Cc2ccccc2)CC1 | 7.52 to 8.52 |
| Cc1c[nH]c2nccc(Oc3ccc(C[C@H](N)C(=O)N4CCC[C@@H](N(C)C)C4)cc3F)c12 | > 8.52 |
| C[C@H](Nc1nc(-c2c[nH]c3ncc(Cl)cc23)ncc1F)C(=O)NC1CCS(=O)(=O)C1 (some centres unmarked) | 5.30 to 6.30 |
| C[C@H](Nc1nc(-c2c[nH]c3ncc([N+](=O)[O-])cc23)ncc1F)c1ccc(F)cc1 | 5.30 to 6.30 |
| COc1cc(-c2csc(NC(=O)Cc3ccc(F)cc3)n2)ccn1 | < 6.00 |
| CCCOC(=O)Nc1cccc(-c2c[nH]c3ncc(Cl)cc23)n1 | 5.30 to 6.30 |
| CC(C)CNC(=O)[C@H](C)Nc1nc(-c2c[nH]c3ncc(Cl)cc23)ncc1F | 5.30 to 6.30 |
| CN1CCC(NC(=O)[C@@H](N)Cc2ccc(Oc3ccnc4[nH]cc(-c5ccccc5)c34)c(F)c2)CC1 | > 8.52 |

pKi of COc1cccc(CC(=O)Nc2nc(-c3c[nH]c4ncc(Br)cc34)cs2)c1 , assay on Rho-associated protein kinase 1 (Homo sapiens), is > 6.30

pKi of Cc1c[nH]c2nccc(Oc3ccc(CC(CN)C(=O)NC4CCCCC4)cc3F)c12 (centres unmarked) , assay on Rho-associated protein kinase 1 (Homo sapiens), is > 8.52

pKi of CS(=O)(=O)Nc1cccc(CC(=O)Nc2nnc(-c3c[nH]c4ncccc34)s2)c1 , assay on Rho-associated protein kinase 1 (Homo sapiens), is > 6.30
